- Test system: Candida albicans
- EXPERIMENT_DESCRIPTION: Reduction of azo substrates over 24 hours at 35° C., microtitration plate (Example 1)
- Type: cell-based
- Set-up: key: RED indicates whether the substrate is reduced (Y) or not (N); RED indicates whether the substrate is reduced (Y) or not (N)
- STUDY_CONDITIONS: substrate 35 mg/l
QUANTITY_KIND: RED (substrate reduced or not)

COMPOUND: O=C(O)c1ccccc1/N=N/c1cc(Br)c(O)c(Br)c1
RESULT: N

COMPOUND: CN(C)c1ccc(N=Nc2ccc(S(=O)(=O)[O-])cc2)cc1.[Na+]
RESULT: N

COMPOUND: Nc1ccc(/N=N/c2ccc(S(=O)(=O)O)cc2)cc1S(=O)(=O)O
RESULT: Y

COMPOUND: Oc1ccc2ccccc2c1/N=N/c1ccc(/C=C/c2ccnc3ccccc23)cc1
RESULT: N

COMPOUND: O=C(O)c1ccccc1/N=N/c1cc(Cl)c(O)c(Cl)c1
RESULT: N

COMPOUND: CN(C)c1ccc(/N=N/c2ccccc2C(=O)O)cc1
RESULT: Y

COMPOUND: O=S(=O)([O-])c1ccc2c(N=Nc3cccc4ccccc34)c(O)c(S(=O)(=O)[O-])cc2c1.[Na+].[Na+]
RESULT: N

COMPOUND: O=S(=O)([O-])c1ccc(N=Nc2c(O)ccc3cc(S(=O)(=O)[O-])ccc23)cc1.[Na+].[Na+]
RESULT: Y

COMPOUND: O=C(O)c1cc(/N=N/c2ccc(-c3nc4ccccc4s3)cc2)ccc1O
RESULT: N

COMPOUND: O=S(=O)([O-])c1ccc2c(N=Nc3ccccc3)c(O)c(S(=O)(=O)[O-])cc2c1.[Na+].[Na+]
RESULT: N

We now examine a further compound.
Query: Which value of RED (substrate reduced or not) has been reported for O=S(=O)([O-])c1ccc(/N=N/c2ccc(O)c3ccccc23)cc1.[Na+] in the records?
Reply: N

* * *

- Test system: Geotrichum candidum
- EXPERIMENT_DESCRIPTION: Reduction of azo substrates over 24 hours at 35° C., microtitration plate (Example 1)
- Type: cell-based
- Set-up: key: The symbol “+” means good growth/decolourization/significant increase in fluorescence; The symbol “+/−” means difficult growth; The symbol “−” means that there is no growth/decolourization/significant increase in fluorescence
- STUDY_CONDITIONS: G. candidum, substrate 35 mg/l
QUANTITY_KIND: Co (growth, absorbance at 660 nm)

Solved cases (5 shown):
SAMPLE_SMILES: O=S(=O)([O-])c1ccc2c(N=Nc3cccc4ccccc34)c(O)c(S(=O)(=O)[O-])cc2c1.[Na+].[Na+]
Co (growth, absorbance at 660 nm): +/−
--
SAMPLE_SMILES: CN(C)c1ccc(/N=N/c2ccccc2C(=O)O)cc1
Co (growth, absorbance at 660 nm): +/−
--
SAMPLE_SMILES: CC(=O)Oc1ccc(/N=N/c2ccccc2C(=O)O)cc1
Co (growth, absorbance at 660 nm): +
--
SAMPLE_SMILES: Oc1ccc2ccccc2c1/N=N/c1ccc(/C=C/c2ccnc3ccccc23)cc1
Co (growth, absorbance at 660 nm): +
--
SAMPLE_SMILES: O=C(O)c1ccccc1/N=N/c1cc(Cl)c(O)c(Cl)c1
Co (growth, absorbance at 660 nm): +

Query: Which value of Co (growth, absorbance at 660 nm) has been reported for O=C(O)c1ccccc1/N=N/c1cc(Br)c(O)c(Br)c1 in the records?
Reply: +

Query: Which value of Co (growth, absorbance at 660 nm) has been reported for CN(C)c1ccc(N=Nc2ccc(S(=O)(=O)[O-])cc2)cc1.[Na+] in the records?
Reply: +

* * *

- System: Geotrichum candidum
- EXPERIMENT_DESCRIPTION: Reduction of azo substrates over 24 hours at 35° C., microtitration plate (Example 1)
- Type: cell-based
- Parameters: key: The symbol “+” means good growth/decolourization/significant increase in fluorescence; The symbol “+/−” means difficult growth; The symbol “−” means that there is no growth/decolourization/significant increase in fluorescence
- STUDY_CONDITIONS: G. candidum, substrate 35 mg/l
QUANTITY_KIND: Co (growth, absorbance at 660 nm)

Solved cases (5 shown):
COMPOUND: Nc1ccc(/N=N/c2ccc(S(=O)(=O)O)cc2)cc1S(=O)(=O)O
Co (growth, absorbance at 660 nm): +

COMPOUND: O=S(=O)([O-])c1ccc(N=Nc2c(O)ccc3ccccc23)cc1.[Na+]
Co (growth, absorbance at 660 nm): +/−

COMPOUND: O=S(=O)([O-])c1ccc(N=Nc2c(O)ccc3cc(S(=O)(=O)[O-])ccc23)cc1.[Na+].[Na+]
Co (growth, absorbance at 660 nm): +

COMPOUND: O=S(=O)([O-])c1ccc2c(N=Nc3ccccc3)c(O)c(S(=O)(=O)[O-])cc2c1.[Na+].[Na+]
Co (growth, absorbance at 660 nm): +/−

COMPOUND: O=C(O)c1cc(/N=N/c2ccc(-c3nc4ccccc4s3)cc2)ccc1O
Co (growth, absorbance at 660 nm): +

Query: Which value of Co (growth, absorbance at 660 nm) has been reported for O=C([O-])C1=NN(c2ccc(S(=O)(=O)[O-])cc2)C(=O)C1/N=N/c1ccc(S(=O)(=O)[O-])cc1.[Na+].[Na+].[Na+] (stereo not shown) in the records?
Reply: +/−

Query: Which value of Co (growth, absorbance at 660 nm) has been reported for O=S(=O)([O-])c1ccc(/N=N/c2ccc(O)c3ccccc23)cc1.[Na+] in the records?
Reply: +/−

* * *

- Test system: Staphylococcus aureus
- EXPERIMENT_DESCRIPTION: Reduction of azo substrates over 24 hours at 35° C., microtitration plate (Example 1)
- Type: cell-based
- Set-up: key: The symbol “+” means good growth/decolourization/significant increase in fluorescence; The symbol “+/−” means difficult growth; The symbol “−” means that there is no growth/decolourization/significant increase in fluorescence
- STUDY_CONDITIONS: S. aureus, substrate 35 mg/l
QUANTITY_KIND: Decol (substrate decolourized, decrease in absorbance)

SAMPLE_SMILES: CN(C)c1ccc(N=Nc2ccc(S(=O)(=O)[O-])cc2)cc1.[Na+]
RESULT: −
--
SAMPLE_SMILES: O=S(=O)([O-])c1ccc2c(N=Nc3ccccc3)c(O)c(S(=O)(=O)[O-])cc2c1.[Na+].[Na+]
RESULT: −
--
SAMPLE_SMILES: O=C(O)c1cc(/N=N/c2ccc(-c3nc4ccccc4s3)cc2)ccc1O
RESULT: +

* * *

- System: Geotrichum candidum
- EXPERIMENT_DESCRIPTION: Reduction of azo substrates over 24 hours at 35° C., microtitration plate (Example 1)
- Type: cell-based
- Set-up: key: The symbol “+” means good growth/decolourization/significant increase in fluorescence; The symbol “+/−” means difficult growth; The symbol “−” means that there is no growth/decolourization/significant increase in fluorescence
- STUDY_CONDITIONS: G. candidum, substrate 35 mg/l
QUANTITY_KIND: Decol (substrate decolourized, decrease in absorbance)

Solved cases (6 shown):
MOLECULE: CN(C)c1ccc(/N=N/c2ccccc2C(=O)O)cc1
RESULT: +/−

MOLECULE: O=C([O-])C1=NN(c2ccc(S(=O)(=O)[O-])cc2)C(=O)C1/N=N/c1ccc(S(=O)(=O)[O-])cc1.[Na+].[Na+].[Na+] (centres unmarked)
RESULT: −

MOLECULE: O=C(O)c1cc(/N=N/c2ccc(-c3nc4ccccc4s3)cc2)ccc1O
RESULT: −

MOLECULE: O=S(=O)([O-])c1ccc(/N=N/c2ccc(O)c3ccccc23)cc1.[Na+]
RESULT: −

MOLECULE: CC(=O)Oc1ccc(/N=N/c2ccccc2C(=O)O)cc1
RESULT: +

MOLECULE: O=C(O)c1ccccc1/N=N/c1cc(Cl)c(O)c(Cl)c1
RESULT: +

Query: API: value(readout= Decol (substrate decolourized, decrease in absorbance), system= Geotrichum candidum, query= O=S(=O)([O-])c1ccc2c(N=Nc3cccc4ccccc34)c(O)c(S(=O)(=O)[O-])cc2c1.[Na+].[Na+] )
Reply: −

Query: API: value(readout= Decol (substrate decolourized, decrease in absorbance), system= Geotrichum candidum, query= O=S(=O)([O-])c1ccc(N=Nc2c(O)ccc3ccccc23)cc1.[Na+] )
Reply: −

Query: API: value(readout= Decol (substrate decolourized, decrease in absorbance), system= Geotrichum candidum, query= O=S(=O)([O-])c1ccc2c(N=Nc3ccccc3)c(O)c(S(=O)(=O)[O-])cc2c1.[Na+].[Na+] )
Reply: −

Query: API: value(readout= Decol (substrate decolourized, decrease in absorbance), system= Geotrichum candidum, query= CN(C)c1ccc(N=Nc2ccc(S(=O)(=O)[O-])cc2)cc1.[Na+] )
Reply: −

Query: API: value(readout= Decol (substrate decolourized, decrease in absorbance), system= Geotrichum candidum, query= O=S(=O)([O-])c1ccc(N=Nc2c(O)ccc3cc(S(=O)(=O)[O-])ccc23)cc1.[Na+].[Na+] )
Reply: −

Query: API: value(readout= Decol (substrate decolourized, decrease in absorbance), system= Geotrichum candidum, query= Oc1ccc2ccccc2c1/N=N/c1ccc(/C=C/c2ccnc3ccccc23)cc1 )
Reply: −

Query: API: value(readout= Decol (substrate decolourized, decrease in absorbance), system= Geotrichum candidum, query= Nc1ccc(/N=N/c2ccc(S(=O)(=O)O)cc2)cc1S(=O)(=O)O )
Reply: −

Query: API: value(readout= Decol (substrate decolourized, decrease in absorbance), system= Geotrichum candidum, query= O=C(O)c1ccccc1/N=N/c1cc(Br)c(O)c(Br)c1 )
Reply: −
